target: AgLsb1; experiment: SPOT peptide array binding signal intensity (averaged, normalized) (arbitrary units (background-subtracted, floor 0; scale differs between SH3 domains)); higher = stronger binding of the SH3 domain to the peptide
assay_metric: SPOT peptide array binding signal intensity
Lab note: jot the number down without any unit.

Query :: Please indicate SPOT peptide array binding signal intensity recorded for NSVPIMPTLPPRPYI
Result :: 26
